- target.of.assay: human GPRC5D (human, UniProt Q9NZD1 1-345)
- Sequence (Q9NZD1 whole entry): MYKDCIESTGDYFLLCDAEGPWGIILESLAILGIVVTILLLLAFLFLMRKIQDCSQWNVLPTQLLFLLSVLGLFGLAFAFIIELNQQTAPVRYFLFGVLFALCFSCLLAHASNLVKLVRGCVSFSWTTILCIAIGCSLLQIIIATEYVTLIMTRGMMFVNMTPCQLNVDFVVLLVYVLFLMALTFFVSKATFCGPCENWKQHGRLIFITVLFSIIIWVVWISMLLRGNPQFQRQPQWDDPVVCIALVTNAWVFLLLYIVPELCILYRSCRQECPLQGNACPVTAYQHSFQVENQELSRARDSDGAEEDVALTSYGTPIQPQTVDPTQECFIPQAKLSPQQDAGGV
- procedure.summary: cell-based or functional assay
Catalogue of CAR-J2 EC50 values
Numeric answer only, unit µg/mL assumed.

Recorded results for 2 binders are shown here.
May I ask what CAR-J2 EC50 has been recorded for P1AE5745 (antibody, V domains shown) VH: QVQLVESGGGVVQPGRSLRLSCAASGFSFSNYGMAWVRQAPGKGLEWVASISTGGGNTYYADSVKGRFTISRDNSKNTLYLQMNSLRAEDTAVYYCTRHDRGGLYWGQGTMVTVSS VL: DIVMTQSPLSLPVTPGEPASISCRSSKSLLHSNGITYVYWYLQKPGKSPQVLIYRMSNLASGVPDRFSGSGSGTDFTLKISRVEAEDVGVYHCGQLLENPYTFGQGTKLEIK ? 0.00162

May I ask what CAR-J2 EC50 has been recorded for P1AE5757 (antibody, V domains shown) VH: EVQLVESGGGLVQPGGSLRLSCAASGFSFSNYGMAWVRQAPGKGLEWVASISTGGGNTYYRDSVKGRFTISRDNAKNTLYLQMNSLRAEDTAVYYCTRHDRGGLYWGQGTMVTVSS VL: DIVMTQSPLSLPVTPGEPASISCRSSKSLLHSNGITYVYWYLQKPGQSPQLLIYRMSNRASGVPDRFSGSGSGTDFTLKISRVEAEDVGVYHCGQLLENPYTFGQGTKLEIK ? 0.145

***
May I ask what CAR-J2 EC50 has been recorded for P1AE5750 (antibody, V domains shown) VH: EVQLVESGGGVVQPGRSLRLSCAASGFSFSNYGMAWVRQAPGKGLEWVASISTGGGNTYYADSVKGRFTISRDNAKNTLYLQMNSLRAEDTAVYYCTRHDRGGLYWGQGTMVTVSS VL: DIVMTQSPLSLPVTPGEPASISCRSSKSLLHSNGITYVYWYLQKPGQSPQVLIYRMSNLASGVPDRFSGSGSGTDFTLKISRVEAEDVGVYHCGQLLENPYTFGQGTKLEIK ? 0.0206
